Hey, just so you know, these numbers are from paper PMC3259047.

- test.protocol: Octanol-water partition coefficient (logPoct) by fluorometry
- Format: physicochemical
- condition.parameters: n-octanol/distilled water, 100 μM, room temperature; mean ± S.E.M, three independent experiments
measured.quantity: logP

1: O=c1ccc2nc3ccc(O)cc3oc-2c1 [Resorufin, 7-hydroxy-3H-phenoxazin-3-one]
2: CCOc1ccc2nc3ccc(=O)cc-3oc2c1
Between 1 and 2 , which one has the lower reported logP value? Which one? Tell me its label. 1

====

neuritic plaques (Homo sapiens, UniProt P05067) pKd data
Sequence (P05067 672-713 limits assumed): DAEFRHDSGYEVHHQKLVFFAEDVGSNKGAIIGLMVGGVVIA
pKd: −log10 of the molar value.

So what's the measured pKd for this one? CCOc1ccc2nc3ccc(=O)cc-3oc2c1 < 5.00

So what's the measured pKd for this one? O=c1ccc2nc3ccc(OCc4ccccc4)cc3oc-2c1 < 5.00

So what's the measured pKd for this one? COc1cc(C=Cc2ccc(O)c(C(=O)O)c2)ccc1C=Cc1ccc(O)c(C(=O)O)c1 [Methoxy-X34, reference compound] 6.66
